Data provenance is paper PMC10397247.

Listed next: entries and their corresponding interaction score.
Molecular target: T1, 4H3462-bA
T1 chain: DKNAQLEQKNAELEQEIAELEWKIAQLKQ
Assay: two-hybrid library CCNG1;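 note: natural log of median RNA to DNA barcode read ratio; higher means stronger binding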
Form rule: numeric answer, no unit written next to it.

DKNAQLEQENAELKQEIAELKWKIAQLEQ [4H3277-bA] :: -0.372
DKNAQLEQEIAELKQKIAELEWKNAQLEQ [4H3175-bA] :: -0.259
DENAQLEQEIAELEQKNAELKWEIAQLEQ [4H1081-bA] :: -0.859
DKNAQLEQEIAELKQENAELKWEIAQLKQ [4H3162-bA] :: -0.481
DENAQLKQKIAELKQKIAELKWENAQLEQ [4H1899-bA] :: -0.31

Reported interaction score for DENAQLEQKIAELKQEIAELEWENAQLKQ [4H1348-bA] was 0.657

interaction score in this record for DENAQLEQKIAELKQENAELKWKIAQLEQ [4H1373-bA] : -0.757
